Values were extracted from PubChem BioAssay (NCI).

# Test system: K-562 leukemia
# Test: NCI-60 one-dose screen, 48 h
# Test settings: 10 µM unless noted
Compounds without any hit were thinned out: in the full panel of roughly 83,000, 20% have a hit. Active and inactive are the calls of the source. Rule for the calls: active = growth percent below 10; inactive = the rest.
Outcome codes: true (1) = active, false (0) = inactive

Molecule: O=C(Nc1ccc([N+](=O)[O-])cc1)C(Cl)(Cl)Cl
System tested: K-562 leukemia
Assigned label: false (0)
--
Molecule: O=C(Nc1ccc(Br)cc1)c1cc(Br)cc(Br)c1O
System tested: K-562 leukemia
Assigned label: false (0)
--
Molecule: COC(=O)[C@@]1(C)CC[C@]2(C)CC[C@]3(C)C4=CC(=O)c5c(cc(O)c(O)c5C)[C@]4(C)CC[C@@]3(C)[C@@H]2C1
System tested: K-562 leukemia
Assigned label: false (0)
--
Molecule: CC1CCCC(C[N+](C)(C)C)C1=O (configuration not stated)
System tested: K-562 leukemia
Assigned label: false (0)
--
Molecule: CCOC(=O)C(Cc1ccc(N(CCCl)CCCl)cc1)NC(=O)C(CC(C)C)NC(C)=O (configuration not stated)
System tested: K-562 leukemia
Assigned label: false (0)
--
Molecule: COc1ccc(Nc2ccnc3cc(Cl)ccc23)cc1CN(CCCl)CCCl
System tested: K-562 leukemia
Assigned label: true (1)
--
Molecule: CNC(=O)Oc1ccc2c(c1)OCO2
System tested: K-562 leukemia
Assigned label: false (0)
--
Molecule: Nc1c(F)cc(-c2nc3cc(F)ccc3[se]2)cc1F
System tested: K-562 leukemia
Assigned label: false (0)
--
Molecule: CC1(C)CN1P(=O)(N1CC1(C)C)N1CC1(C)C (configuration not stated)
System tested: K-562 leukemia
Assigned label: false (0)
--
Molecule: N#Cc1c(Br)n(C2OC(CO)C(O)C2O)c2ncnc(N)c12 (configuration not stated)
System tested: K-562 leukemia
Assigned label: false (0)
--
Molecule: CC(=O)Nc1nc2c(s1)CC[C@@]1(C)C2=CC[C@H]2[C@@H]3CC[C@H](O)[C@@]3(C)CC[C@@H]21
System tested: K-562 leukemia
Assigned label: false (0)
--
Molecule: CC[C@H](C)[C@H](NC(=O)C12C3C4C1C1C2C3C41NC(C)=O)C(=O)N(C)[C@H](C[C@@H](OC(C)=O)c1nc(C(=O)N[C@@H](Cc2ccccc2)C[C@H](C)C(=O)OC)cs1)C(C)C (some centres not stated)
System tested: K-562 leukemia
Assigned label: true (1)

###

# Tested on: A549/ATCC NSCLC
# Test: NCI-60 one-dose screen, 48 h (100 = growth as untreated, 0 = no growth, -100 = all killed)
# Test settings: 10 µM unless noted
About 83,000 compounds went through this panel and 20% of them were active in at least one assay; those are over-represented in the sample as a whole. The source made the active and inactive calls. Rule for the calls: active = growth percent below 10; inactive = the rest.

Compound: CN1CCCCC1C(C)(O)c1ccccc1 (centres undefined)
System tested: A549/ATCC NSCLC
growth: 92% (inactive)
//
Compound: OCCNC(Cc1ccccc1)c1ccc2c(c1)OCO2 (centres undefined)
System tested: A549/ATCC NSCLC
growth: 90.8% (inactive)
//
Compound: CC[C@H](C)[C@H](NC(=O)[C@H]1CCCCN1C)C(=O)N(C)[C@H](CCc1nc(C(=O)N[C@@H](Cc2ccccc2)C[C@H](C)C(=O)OC)cs1)C(C)C
System tested: A549/ATCC NSCLC
growth: 17% (inactive)
//
Compound: O=C(O)c1ccc([S-])cc1.[Au+].c1ccc(CN2[CH-]N(Cc3ccccc3)C(c3ccccc3)=C2c2ccccc2)cc1
System tested: A549/ATCC NSCLC
growth: 3.5% (active)
//
Compound: O=C1CC2(CC3(Cl)C(Cl)=C(Cl)C2(Cl)C3(Cl)Cl)C(=O)O1 (centres undefined)
System tested: A549/ATCC NSCLC
growth: 105% (inactive)
//
Compound: CCn1nccc1NC(=O)C(=O)c1cn(Cc2ccc(F)cc2)c2cccc(OC)c12
System tested: A549/ATCC NSCLC
growth: 92.4% (inactive)
//
Compound: Cn1cc(-c2csc(-c3cn(CCCCN4CCCCC4)c4ccccc34)n2)c2cccnc21
System tested: A549/ATCC NSCLC
growth: -47.1% (active)
//
Compound: COc1cc(/C=C\c2cc(OC)c(OC)c(OC)c2)cc(N/C=C\C(=O)c2cc(OC)c(OC)c(OC)c2)c1OC
System tested: A549/ATCC NSCLC
growth: 40% (inactive)
//
Compound: CC(=O)/C=C/c1ccc2c(c1)OCO2
System tested: A549/ATCC NSCLC
growth: 95.2% (inactive)

###

# Tested on: T-47D breast
# Test: NCI-60 one-dose screen, 48 h (100 = growth as untreated, 0 = no growth, -100 = all killed)
# Test settings: 10 µM unless noted
About 83,000 compounds went through this panel and 20% of them were active in at least one assay; those are over-represented in the sample as a whole.

Compound: CCC(C)(C)[C@H](NC(=O)[C@H]1CCCCN1C)C(=O)N(C)[C@H](C[C@@H](OC(C)=O)c1nc(C(=O)N[C@@H](Cc2ccccc2)C[C@H](C)C(=O)O)cs1)C(C)C
growth / %: 76.7
//
Compound: COC(=O)[C@@H](C)C[C@H](Cc1ccccc1)NC(=O)c1csc([C@@H](C[C@H](C(C)C)N(C)C(=O)[C@@H](NC(=O)[C@H]2CCCCN2C)C(C)C)OC(C)=O)n1
growth / %: 54.7
//
Compound: CCC(O)(CN)c1ccccc1 (centres undefined)
growth / %: 99.6
//
Compound: CC12CCC3C(C=CC4=C(N)C(=O)CCC43C)C1CCC2=O (centres undefined)
growth / %: 73.7
//
Compound: COc1cc(C=Nc2cc(Cl)cc(Cl)c2)ccc1N(CCCl)CCCl
growth / %: 95.4
//
Compound: CCn1nccc1NC(=O)C(=O)c1cn(Cc2ccc(F)cc2)c2cccc(OC)c12
growth / %: 80.5
//
Compound: COP(=S)(N1CC1)N1CC1
growth / %: 94.8
//
Compound: Fc1c[c-]c(-c2ccccn2)c(F)c1.[CH3-].[Pt+2].c1ccc([PH+](c2ccccc2)c2ccccn2)cc1
growth / %: -7.66
//
Compound: O=C(c1cccc(O)c1O)c1cn(Cc2ccc(F)cc2)c2cccc(O)c12
growth / %: 34.5

###

# Tested on: T-47D breast
# Test: NCI-60 one-dose screen, 48 h (100 = growth as untreated, 0 = no growth, -100 = all killed)
# Test settings: 10 µM unless noted
Compounds without any hit were thinned out: in the full panel of roughly 83,000, 20% have a hit.

Compound: C=COC(=O)CCN1CC1
growth, %: 106
--
Compound: CCCCCCCCCCCCCCCCCC1OC[C@H](COC(=O)O[C@@H](C(=O)O[C@H]2C[C@@]3(O)[C@@H](OC(=O)c4ccccc4)[C@@H]4[C@]5(OC(C)=O)CO[C@@H]5C[C@H](O)[C@@]4(C)C(=O)[C@H](OC(C)=O)C(=C2C)C3(C)C)[C@@H](NC(=O)c2ccccc2)c2ccccc2)O1 (stereo partly specified)
growth, %: 50.4
--
Compound: COc1cc(/C=N/C2=C(C#N)C(c3ccco3)c3c(c4cc(C)ccc4oc3=O)O2)cc(OC)c1OC (stereo unspecified)
growth, %: 88.2
--
Compound: CNC(=O)Oc1ccc2c(c1)OCO2
growth, %: 99.9
--
Compound: O=[N+]([O-])CC(c1ccccc1Cl)c1c(-c2ccccc2)[nH]c2ccccc12 (stereo unspecified)
growth, %: 22.1
--
Compound: CC(=O)OC[C@]1(C)C=C2C(=O)[C@](C)(O)C3(CC3)C(C)=C2[C@H]1OC(=O)N(C)CCN(C)C(=O)OC(C)(C)C
growth, %: 8.4
--
Compound: O=C(Nc1ccc(Cl)cc1)Nc1nccs1
growth, %: 40.1
--
Compound: CCOP1(=O)CC(C)=C(Cl)C(P(=O)(OCC)OCC)C1 (stereo unspecified)
growth, %: 96.4
--
Compound: CC(=O)/C=C/c1ccc2c(c1)OCO2
growth, %: 107
--
Compound: Clc1cccc(NCOOC2(OOCNc3cccc(Cl)c3)CCCCC2)c1
growth, %: 62
--
Compound: COc1ccc(O)c(CNC(=O)CN2CCCC2=O)c1
growth, %: 99.4

###

# Tested on: MDA-MB-435 melanoma
# Test: NCI-60 one-dose screen, 48 h (100 = growth as untreated, 0 = no growth, -100 = all killed)
# Test settings: 10 µM unless noted
About 83,000 compounds went through this panel and 20% of them were active in at least one assay; those are over-represented in the sample as a whole.
Each entry gets False if its growth stays under -40%, and True if its growth is -40% or above.

Compound: CC[C@H](C)[C@H](NC(=O)NC(C)(C)C)C(=O)N(C)[C@H](C[C@@H](OC(C)=O)c1nc(C(=O)N[C@@H](Cc2ccccc2)C[C@H](C)C(=O)OC)cs1)C(C)C
Assigned label: False
--
Compound: COC(=O)[C@@H](C)C[C@H](Cc1ccc2ccccc2c1)NC(=O)c1csc([C@@H](C[C@H](C(C)C)N(C)C(=O)[C@@H](NC(=O)[C@H]2CCCCN2C)C(C)C)OC(C)=O)n1
Assigned label: True
--
Compound: COC(=O)[C@@H](C)C[C@H](Cc1ccccc1)NC(=O)c1csc([C@@H](C[C@H](C(C)C)N(C)C(=O)C2(NC(=O)[C@H]3CCCCN3C)CCC2)OC(C)=O)n1
Assigned label: True
--
Compound: CCOC(=O)[C@@H](C)C[C@H](Cc1ccccc1)NC(=O)c1csc([C@@H](C[C@H](C(C)C)N(C)C(=O)[C@H](CC)NC(=O)[C@H]2CCCCN2C)OC(C)=O)n1
Assigned label: True
--
Compound: COc1ccc(N(CC(=O)NCCC[Te]c2ccccc2)C(=O)CCSC2=C(C)C(=O)c3ccccc3C2=O)cc1
Assigned label: True
--
Compound: CC(=O)O[C@H]1C(=O)[C@@]2(C)[C@H]([C@H](OC(=O)c3ccccc3)[C@]3(O)C[C@H](OC(=O)[C@H](OC(=O)OCC4COC(C)(C)O4)[C@@H](NC(=O)c4ccccc4)c4ccccc4)C(C)=C1C3(C)C)[C@]1(OC(C)=O)CO[C@@H]1C[C@@H]2O (stereo partly specified)
Assigned label: False
